Every entry's value here was drawn from ChEMBL document CHEMBL2062461.

assay target: Acetylcholinesterase (Homo sapiens)
Sequence (P22303 whole entry): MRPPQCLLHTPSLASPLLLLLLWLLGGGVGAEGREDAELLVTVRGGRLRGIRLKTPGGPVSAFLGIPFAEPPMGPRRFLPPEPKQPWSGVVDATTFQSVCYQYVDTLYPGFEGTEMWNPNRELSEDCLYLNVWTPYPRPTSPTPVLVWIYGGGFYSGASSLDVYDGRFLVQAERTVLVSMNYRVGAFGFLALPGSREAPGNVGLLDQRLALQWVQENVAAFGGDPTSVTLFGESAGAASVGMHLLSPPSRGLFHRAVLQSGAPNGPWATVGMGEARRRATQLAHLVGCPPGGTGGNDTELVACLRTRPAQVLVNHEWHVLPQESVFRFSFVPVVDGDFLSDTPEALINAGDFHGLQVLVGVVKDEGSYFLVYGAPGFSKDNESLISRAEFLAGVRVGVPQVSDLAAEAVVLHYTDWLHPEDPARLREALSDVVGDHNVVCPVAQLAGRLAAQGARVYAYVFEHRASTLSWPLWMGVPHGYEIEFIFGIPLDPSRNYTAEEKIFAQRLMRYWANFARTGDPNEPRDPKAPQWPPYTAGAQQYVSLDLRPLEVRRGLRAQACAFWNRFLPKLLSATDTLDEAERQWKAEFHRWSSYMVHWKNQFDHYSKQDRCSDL
pIC50: −log10 of the molar value.
# pIC50 >= 7 gives T, anything below gives F

Q) Does pIC50 meet or surpass 7 for "O=C(CCN1CCCCC1)N1CCN(CCNc2c3c(nc4ccccc24)CCCC3)CC1" ?
A) T

Q) Does the compound "CN(CCC(=O)N1CCN(CCNc2c3c(nc4ccccc24)CCCC3)CC1)C1CCCCC1" have recorded pIC50 that is 7 or more?
A) T

Q) Does pIC50 meet or surpass 7 for "CN(CCCN1CCN(CCNc2c3c(nc4ccccc24)CCCC3)CC1)C1CCCCC1" ?
A) T

Q) Reported pIC50 at or above 7? "CCN(CCCN1CCN(CCNc2c3c(nc4ccccc24)CCCC3)CC1)C1CCCCC1"
A) F

Q) Textbook exercise: given the entry "CCN(CCC(=O)N1CCN(CCNc2c3c(nc4ccccc24)CCCC3)CC1)C1CCCCC1" , state whether its pIC50 is greater than or equal to 7.
A) T

Q) API: above_or_equal(metric=pIC50, cutoff=7) for item "O=C(CCNCCNc1c2c(nc3ccccc13)CCCC2)N1CCN(CCNc2c3c(nc4ccccc24)CCCC3)CC1"
A) T

====

assay target: Cholinesterase (Homo sapiens)
Sequence (P06276 whole entry): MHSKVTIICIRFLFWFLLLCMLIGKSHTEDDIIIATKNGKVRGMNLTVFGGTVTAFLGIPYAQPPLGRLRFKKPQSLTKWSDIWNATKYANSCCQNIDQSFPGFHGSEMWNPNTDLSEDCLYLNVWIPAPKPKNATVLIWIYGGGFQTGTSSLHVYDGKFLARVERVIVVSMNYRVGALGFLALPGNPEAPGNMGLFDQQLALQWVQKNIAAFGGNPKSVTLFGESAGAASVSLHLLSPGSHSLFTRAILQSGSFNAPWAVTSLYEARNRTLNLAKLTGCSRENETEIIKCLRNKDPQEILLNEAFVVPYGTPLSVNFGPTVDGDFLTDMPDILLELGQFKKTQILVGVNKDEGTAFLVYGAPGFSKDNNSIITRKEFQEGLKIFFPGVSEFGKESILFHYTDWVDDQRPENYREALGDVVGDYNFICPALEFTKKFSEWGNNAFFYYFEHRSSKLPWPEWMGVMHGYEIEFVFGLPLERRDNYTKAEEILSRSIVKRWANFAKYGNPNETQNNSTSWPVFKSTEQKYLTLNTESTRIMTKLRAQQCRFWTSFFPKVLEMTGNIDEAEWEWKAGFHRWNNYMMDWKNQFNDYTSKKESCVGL
# strict inequality: IC50 < 100 nM yields label 1, everything else yields label 0

Q) Identify whether the compound "CN(CCC(=O)N1CCN(CCNc2c3c(nc4ccccc24)CCCC3)CC1)C1CCCCC1" records IC50 below 100 nM.
A) label 1

Q) Determine whether this compound shows IC50 lower than 100 nM (ties excluded): "CN(CCCN1CCN(CCNc2c3c(nc4ccccc24)CCCC3)CC1)c1ccccc1"
A) label 0

Q) For "O=C(CCN1CCCCC1)N1CCN(CCNc2c3c(nc4ccccc24)CCCC3)CC1" , is the recorded IC50 below the cut-off of 100 nM?
A) label 1

Q) Just wondering, is IC50 of "CN(CCC(=O)N1CCN(CCNc2c3c(nc4ccccc24)CCCC3)CC1)c1ccccc1" below 100 nM?
A) label 1

Q) hey, is IC50 for "O=C(CCNCCNc1c2c(nc3ccccc13)CCCC2)N1CCN(CCNc2c3c(nc4ccccc24)CCCC3)CC1" lower than 100 nM or not?
A) label 0

Q) Record "CN(CCCN1CCN(CCNc2c3c(nc4ccccc24)CCCC3)CC1)C1CCCCC1" : is its IC50 strictly below 100 nM?
A) label 0

Q) Lab note: IC50 threshold 100 nM. Does this compound come in strictly under it? "CCN(CCC(=O)N1CCN(CCNc2c3c(nc4ccccc24)CCCC3)CC1)C1CCCCC1"
A) label 1

Q) Quick check: IC50 of "CCN(CCCN1CCN(CCNc2c3c(nc4ccccc24)CCCC3)CC1)C1CCCCC1" under 100 nM?
A) label 0

====

Dear all, this message contains pKi results, target or system Acetylcholinesterase (Homo sapiens, UniProt P22303).
Remember the convention: pKi equals -log10 of concentration in molar.

Q) Name the reported pKi value associated with the molecule "CCN(CCC(=O)N1CCN(CCNc2c3c(nc4ccccc24)CCCC3)CC1)C1CCCCC1"
A) 8.43

Q) Entry "O=C(CCN1CCCCC1)N1CCN(CCNc2c3c(nc4ccccc24)CCCC3)CC1" : reported pKi = ?
A) 7.12

Q) Entry "CN(CCCN1CCN(CCNc2c3c(nc4ccccc24)CCCC3)CC1)C1CCCCC1" : reported pKi = ?
A) 7.32

Q) Would you kindly share the measured pKi for "CN(CCCN1CCN(CCNc2c3c(nc4ccccc24)CCCC3)CC1)c1ccccc1" ?
A) 7.61

Q) I have this molecule here, "CN(CCC(=O)N1CCN(CCNc2c3c(nc4ccccc24)CCCC3)CC1)C1CCCCC1" , and I need its recorded pKi.
A) 9.50

Q) Entry under review: "CN(CCC(=O)N1CCN(CCNc2c3c(nc4ccccc24)CCCC3)CC1)c1ccccc1" . Reported pKi?
A) 7.07
